# subject_of_test: Mitogen-activated protein kinase kinase kinase 5 (Homo sapiens) (UniProt Q99683)
# Sequence (Q99683 whole entry, looked up): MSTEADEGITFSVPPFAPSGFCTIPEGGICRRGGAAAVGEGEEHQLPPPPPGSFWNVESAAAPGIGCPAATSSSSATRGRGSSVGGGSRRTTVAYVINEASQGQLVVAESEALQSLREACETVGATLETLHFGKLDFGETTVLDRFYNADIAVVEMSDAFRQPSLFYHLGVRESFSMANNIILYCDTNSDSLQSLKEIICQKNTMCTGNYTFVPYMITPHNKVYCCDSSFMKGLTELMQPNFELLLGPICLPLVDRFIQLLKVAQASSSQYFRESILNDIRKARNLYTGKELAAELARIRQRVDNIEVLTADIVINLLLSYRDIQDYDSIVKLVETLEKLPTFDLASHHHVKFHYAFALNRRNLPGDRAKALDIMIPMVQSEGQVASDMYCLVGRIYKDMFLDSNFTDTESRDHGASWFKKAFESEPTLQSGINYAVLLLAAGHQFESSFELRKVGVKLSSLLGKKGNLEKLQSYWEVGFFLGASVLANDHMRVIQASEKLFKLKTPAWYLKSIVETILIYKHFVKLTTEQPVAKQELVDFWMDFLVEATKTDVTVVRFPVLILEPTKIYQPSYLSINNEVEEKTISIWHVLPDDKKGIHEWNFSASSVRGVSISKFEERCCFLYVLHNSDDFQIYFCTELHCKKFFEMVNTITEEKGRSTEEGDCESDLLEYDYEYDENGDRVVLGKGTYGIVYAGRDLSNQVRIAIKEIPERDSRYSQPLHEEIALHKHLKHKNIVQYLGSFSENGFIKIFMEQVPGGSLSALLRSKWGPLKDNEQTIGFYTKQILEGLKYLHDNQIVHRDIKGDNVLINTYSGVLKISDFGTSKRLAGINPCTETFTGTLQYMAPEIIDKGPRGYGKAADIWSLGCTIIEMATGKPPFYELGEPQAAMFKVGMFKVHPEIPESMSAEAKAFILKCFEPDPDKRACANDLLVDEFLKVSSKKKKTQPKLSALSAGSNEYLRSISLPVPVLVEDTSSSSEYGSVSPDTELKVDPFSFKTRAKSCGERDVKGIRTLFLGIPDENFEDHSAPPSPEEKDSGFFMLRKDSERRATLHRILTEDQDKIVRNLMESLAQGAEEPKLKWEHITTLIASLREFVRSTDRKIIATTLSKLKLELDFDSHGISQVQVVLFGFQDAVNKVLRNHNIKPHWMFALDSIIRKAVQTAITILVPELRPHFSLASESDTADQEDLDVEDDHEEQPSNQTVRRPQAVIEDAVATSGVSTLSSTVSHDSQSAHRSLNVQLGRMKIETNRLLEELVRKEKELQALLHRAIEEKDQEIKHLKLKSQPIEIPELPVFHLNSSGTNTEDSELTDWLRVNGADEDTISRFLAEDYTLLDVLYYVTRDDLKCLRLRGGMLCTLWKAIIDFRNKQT
# experimental_details: MAP3K5 inhibition concentration-response curves – biochemical, AlphaScreen, MKK6 phosphorylation, dose response (AID 1159605);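 note: ASK1 phosphorylation of MKK6 substrate detected with anti-phospho-MKK6 antibody beads; inhibitors lower the luminescent signal by blocking MKK6 phosphorylation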
# protocol_conditions: ASK1 MKK6 phosphorylation, AlphaScreen luminescence
Active and inactive are the calls of the source.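 Rule for the calls: active = IC50 of 10 µM or lower; inactive = IC50 above 10 µM.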
Output constraint: value belongs to yes = active, no = inactive

Worked set:
CN(C)c1cccc(Nc2ccc(-n3cc(CC(=O)Nc4ccc(N5CCOCC5)cc4)c4ccccc43)nn2)c1
no
COc1cc2nc(NCc3ccc4c(c3)OCO4)nc(Nc3ccc(N4CCOCC4)cc3)c2cc1OC
no
COc1ccc(CCNc2ccnc(Nc3cccc(N(C)C)c3)n2)cc1
yes
Cc1ccc(-c2ncn(-c3ccc(Nc4ncc(Cl)c(-c5ccnn5C)n4)cc3)n2)cn1
no
Cc1n[nH]c(C)c1-c1cc(F)cc(-c2ccnc(Nc3ccc(-n4cnc(N5CCOCC5)n4)cc3)n2)c1
no
COc1ccc(CCNc2nc(Nc3ccc(N4CCOCC4)cc3)nc3c2ncn3-c2ccsc2)cc1
yes

How was `Cc1ccc(-c2cccc3cnc(Nc4ccc(-n5cnc(C)n5)cc4)nc23)cn1` classified in this test?
no

How was `FC(F)(F)c1ccc(Cn2cnc3c(Nc4ccc(N5CCOCC5)cc4)nc(NC4CCN(Cc5ccccc5)CC4)nc32)cc1` classified in this test?
no

How was `CC(C)n1cnc2c(Nc3ccccc3)nc(Nc3ccc(N4CCOCC4)cc3)nc21` classified in this test?
no

How was `FC(F)(F)c1ccc(Cn2cnc3c(NCc4ccccc4)nc(-c4ccc(N5CCOCC5)nc4)nc32)cc1` classified in this test?
no

How was `CC(C)n1cnc2c(Nc3ccc(N4CCOCC4)cc3)nc(N3CCN(c4ccccn4)CC3)nc21` classified in this test?
no

How was `Cc1cc(NCc2cccc(C(F)(F)F)c2)nc(Nc2ccc(N3CCOCC3)cc2)n1` classified in this test?
yes

How was `COc1cc2nc(Nc3ccc(N4CCOCC4)cc3)nc(Nc3ccccc3)c2cc1OC` classified in this test?
no

How was `O=C1CCCN1CCCNc1nc(Nc2ccc(-n3ccnc3)cc2)nc2c1ncn2-c1ccsc1` classified in this test?
no

How was `c1cc(Nc2ccc3c(c2)OCO3)nc(Nc2ccc(N3CCOCC3)cc2)n1` classified in this test?
no

How was `CN(C)c1cccc(Nc2nccc(NCc3cccc(C(F)(F)F)c3)n2)c1` classified in this test?
no

How was `Cc1cc(NCCc2ccc(O)cc2)nc(Nc2cccc(N(C)C)c2)n1` classified in this test?
no

How was `Cc1ccccc1-c1cscc1Nc1cnn(-c2cccc(C(=O)Nc3ccc(N4CCOCC4)cc3)c2)c1` classified in this test?
no

How was `COc1ccc(CCNc2nc(Nc3ccc(N4CCOCC4)cc3)nc3c2ncn3Cc2ccc(C(F)(F)F)cc2)cc1` classified in this test?
yes

* * *

# subject_of_test: Mitogen-activated protein kinase kinase kinase 5 (Homo sapiens)
# experimental_details: MAP3K5 inhibition concentration-response curves – biochemical, AlphaScreen, MKK6 phosphorylation, dose response (AID 1159605)
# protocol_conditions: ASK1 MKK6 phosphorylation, AlphaScreen luminescence
Calls of active or inactive are those of the source.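 How the source made its calls: active means IC50 of 10 µM or lower; inactive means IC50 above 10 µM.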
Output constraint: value belongs to active, inactive

COc1ccc2c(c1)CC(C(=O)Nc1ccc(-c3cn[nH]c3)cc1OCCOCc1ccccc1)CO2 (configuration not stated)
inactive
O=C(Nc1ccc(-c2ncnc3[nH]ccc23)cc1)C1COc2ccccc2O1 (configuration not stated)
inactive
c1ccc(CCn2nc(-c3ccnc(Nc4ccc(N5CCOCC5)cc4)c3)cc2Nc2ccccc2)cc1
inactive
COc1cc2nc(Nc3ccc(-n4ccnc4)cc3)nc(Nc3ccc4c(c3)OCO4)c2cc1OC
inactive

Switching to the query record.
How was `COc1ccc(CCNc2nc(Nc3cccc(N(C)C)c3)nc3cc(OC)c(OC)cc23)cc1` classified in this test?
inactive

* * *

# subject_of_test: Mitogen-activated protein kinase kinase kinase 5 (Homo sapiens) (UniProt Q99683)
# experimental_details: MAP3K5 inhibition concentration-response curves – biochemical, AlphaScreen, MKK6 phosphorylation, dose response (AID 1159605)
# protocol_conditions: ASK1 MKK6 phosphorylation, AlphaScreen luminescence
The source made the active and inactive calls.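 Rule for the calls: active = IC50 of 10 µM or lower; inactive = IC50 above 10 µM.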
outcome_measure: IC50

// known answers, use as guide
COc1ccc(CCNc2nc(Nc3ccc(N4CCOCC4)cc3)ncc2C)cc1
inactive
Cc1cc(NCc2cccc(C(F)(F)F)c2)nc(Nc2cccc(N(C)C)c2)n1
> 20.1 µM (inactive)
Cc1cc(Nc2ccc(N3CCOCC3)cc2)nc(Nc2cccc(N(C)C)c2)n1
> 19.9 µM (inactive)
CN1CCN(c2ncn(-c3ccc(Nc4nccc(-c5cc(C#N)cc(N6CCC(O)CC6)c5)n4)cc3)n2)CC1
> 19.2 µM (inactive)
c1ccc2c(-c3nccc(Nc4ccc(N5CCOCC5)cc4)n3)csc2c1
> 21.8 µM (inactive)
COc1cc2nc(NC3CCN(Cc4ccccc4)CC3)nc(Nc3ccc(N4CCOCC4)cc3)c2cc1OC
inactive
CC(C)n1cnc2c(Nc3ccc(Oc4ccccc4)cc3)nc(N3CCOCC3)nc21
inactive
Cc1cnc(Nc2nc3ccccc3n2C)nc1Nc1ccc(N2CCOCC2)cc1
> 21.8 µM (inactive)

Next:
Give recorded IC50. `FC(F)(F)c1ccc(Cn2cnc3c(Nc4ccc5c(c4)OCO5)nc(N4CCN(c5ccccn5)CC4)nc32)cc1`
> 20 µM (inactive)

* * *

# subject_of_test: Mitogen-activated protein kinase kinase kinase 5 (Homo sapiens) (UniProt Q99683)
# experimental_details: MAP3K5 inhibition concentration-response curves – biochemical, AlphaScreen, MKK6 phosphorylation, dose response (AID 1159605);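 note: ASK1 phosphorylation of MKK6 substrate detected with anti-phospho-MKK6 antibody beads; inhibitors lower the luminescent signal by blocking MKK6 phosphorylation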
# protocol_conditions: ASK1 MKK6 phosphorylation, AlphaScreen luminescence
Calls of active or inactive are those of the source.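 Rule for the calls: active = IC50 of 10 µM or lower; inactive = IC50 above 10 µM.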
Output constraint: value belongs to active, inactive

Worked set:
CN(C)c1cccc(Nc2nc(Nc3ccc(N4CCOCC4)cc3)c3[nH]cnc3n2)c1
inactive
COc1cc2nc(Nc3cccc(N(C)C)c3)nc(Nc3ccc4c(c3)OCO4)c2cc1OC
active
CN(C)c1cc(F)cc(-c2ccnc(Nc3ccc(-n4cnc(N5CCC(O)CC5)n4)cc3)n2)c1
inactive
COc1cc2nc(Nc3cccc(N(C)C)c3)nc(Nc3ccc(N4CCOCC4)cc3)c2cc1OC
inactive
COc1cc2nc(Nc3ccc(N4CCOCC4)cc3)nc(Nc3ccc(OCCN4CCCCC4)cc3)c2cc1OC
inactive
Fc1cc(-c2ccnc(Nc3ccc(N4CCOCC4)cc3)n2)cc(N2CCN(C3CC3)CC2)c1
inactive
COc1ccc(CCNc2cc(C)nc(Nc3cccc(N(C)C)c3)n2)cc1
active
Cc1cc(Nc2ccc3c(c2)OCO3)nc(Nc2cccc(N(C)C)c2)n1
active
c1ccc(N2CCN(c3nc(Nc4ccc(N5CCOCC5)cc4)c4ncn(-c5ccsc5)c4n3)CC2)nc1
inactive
Cc1cc(Nc2ccc(N3CCOCC3)cc2)nc(N2CCc3ccccc3C2)n1
inactive

How was `Cn1cc(-c2ccc3cnc(Nc4ccc(-c5ccc(N6CCOCC6)nc5)cc4)nc3c2Cl)cn1` classified in this test?
inactive

How was `CN(C)c1cccc(Nc2nc(Nc3ccc4c(c3)OCO4)c3ncn(Cc4ccc(C(F)(F)F)cc4)c3n2)c1` classified in this test?
inactive

* * *

# subject_of_test: Mitogen-activated protein kinase kinase kinase 5 (Homo sapiens)
# experimental_details: MAP3K5 inhibition concentration-response curves – biochemical, AlphaScreen, MKK6 phosphorylation, dose response (AID 1159605);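 note: ASK1 phosphorylation of MKK6 substrate detected with anti-phospho-MKK6 antibody beads; inhibitors lower the luminescent signal by blocking MKK6 phosphorylation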
# protocol_conditions: ASK1 MKK6 phosphorylation, AlphaScreen luminescence
Calls of active or inactive are those of the source.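 Rule for the calls: active = IC50 of 10 µM or lower; inactive = IC50 above 10 µM.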
Output constraint: value belongs to active, inactive

How was `FC(F)(F)c1ccc(Cn2cnc3c(NCc4cccc(C(F)(F)F)c4)nc(Nc4ccc5ncccc5c4)nc32)cc1` classified in this test?
inactive

How was `Cc1ncn(-c2ccc(Nc3nccc(-c4cc(F)cc(-c5cn[nH]c5C)c4)n3)cc2)n1` classified in this test?
inactive

How was `COc1cc2nc(Nc3ccc(N4CCOCC4)cc3)nc(NC3CC3)c2cc1OC` classified in this test?
inactive

How was `Cc1cnc(-c2cccc(N)c2)nc1Nc1ccc(N2CCOCC2)cc1` classified in this test?
inactive

How was `Nc1nc(Nc2ccc(N3CCOCC3)cc2)cc(Nc2ccc3c(c2)OCO3)n1` classified in this test?
inactive

How was `CC(C)n1cnc2c(NC3CCN(Cc4ccccc4)CC3)nc(Nc3cccc(N(C)C)c3)nc21` classified in this test?
inactive

How was `CC(C)NC(=O)c1cccc(NC(=O)Nc2ccc(-c3ccnc4[nH]ccc34)cc2)c1` classified in this test?
inactive

How was `Cc1cc(Nc2ccc3c(c2)OCO3)nc(Nc2ccc(N3CCOCC3)cc2)n1` classified in this test?
inactive

How was `c1ccc(OCCNc2nc(Nc3ccc(N4CCOCC4)cc3)nc3c2ncn3C2CCCCC2)cc1` classified in this test?
active

* * *

# subject_of_test: Mitogen-activated protein kinase kinase kinase 5 (Homo sapiens) (UniProt Q99683)
# experimental_details: MAP3K5 inhibition concentration-response curves – biochemical, AlphaScreen, MKK6 phosphorylation, dose response (AID 1159605);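 note: ASK1 phosphorylation of MKK6 substrate detected with anti-phospho-MKK6 antibody beads; inhibitors lower the luminescent signal by blocking MKK6 phosphorylation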
# protocol_conditions: ASK1 MKK6 phosphorylation, AlphaScreen luminescence
Calls of active or inactive are those of the source.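 Rule for the calls: active = IC50 of 10 µM or lower; inactive = IC50 above 10 µM.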
Output constraint: value belongs to active, inactive

COc1ccc(-c2nc3ncnc(Nc4cc(OC)c(OC)c(OC)c4)c3[nH]2)cn1
inactive
FC(F)(F)c1ccc(Cn2cnc3c(Nc4ccc5c(c4)OCO5)nc(NC4CCN(Cc5ccccc5)CC4)nc32)cc1
inactive
COc1cc(NC(=O)c2cccc(-n3cc(NC(=O)Nc4c(C)cccc4Cl)cn3)c2)cc(OC)c1OC
inactive
CN(C)c1cccc(Nc2nccc(Nc3ccc4c(c3)OCO4)n2)c1
inactive
c1cc(-c2ccc3[nH]ncc3c2)nc(Nc2ccc(N3CCOCC3)cc2)n1
inactive
COc1cc2nc(Nc3ccc4ncccc4c3)nc(Nc3ccc(NC(C)=O)cc3)c2cc1OC
inactive

How was `O=c1[nH]cccc1-c1ccc(Nc2nccc(-c3ccc4nc(C5CC5)[nH]c(=O)c4c3)n2)cc1` classified in this test?
inactive

How was `Cc1cccc(Nc2ccc3c(cnn3-c3cccc(C(=O)NCCN4CCN(CC5CC5)CC4)c3)c2)c1Cl` classified in this test?
inactive

How was `Cc1cc(Nc2ccc3c(c2)OCO3)nc(N2CCN(Cc3ccc4c(c3)OCO4)CC2)n1` classified in this test?
inactive

How was `c1cnc2ccc(Nc3nc(Nc4ccc(N5CCOCC5)cc4)c4[nH]cnc4n3)cc2c1` classified in this test?
inactive

How was `c1cc(-n2cnc3c(NC4CC4)nc(Nc4ccc(N5CCOCC5)cc4)nc32)cs1` classified in this test?
inactive

How was `Cc1c[nH]c2ncnc(-c3ccc(NC(=O)Nc4ccccc4)cc3)c12` classified in this test?
inactive

How was `COc1cc2nc(Nc3ccc(N4CCOCC4)cc3)nc(Nc3ccc4c(c3)OCO4)c2cc1OC` classified in this test?
inactive

How was `c1cc(-n2cnc3c(Nc4ccc5c(c4)OCO5)nc(Nc4ccc(N5CCOCC5)cc4)nc32)cs1` classified in this test?
active

How was `Cc1cnc(-c2csc3ccccc23)nc1Nc1ccc(N2CCOCC2)cc1` classified in this test?
inactive

How was `c1ccc(CN2CCC(Nc3nc(Nc4ccc(N5CCOCC5)cc4)nc4nc[nH]c34)CC2)cc1` classified in this test?
inactive

How was `c1ccc(-n2cnc3c(Nc4ccc(N5CCOCC5)cc4)nc(Nc4cccnc4)nc32)cc1` classified in this test?
inactive

How was `c1ccc2c(c1)CCN(c1nccc(Nc3ccc(N4CCOCC4)cc3)n1)C2` classified in this test?
inactive

How was `FC(F)(F)c1cc(-c2ccnc(Nc3ccc(N4CCOCC4)cc3)n2)cc(N2CCOCC2)c1` classified in this test?
inactive
